experimentalTarget: T1, human PCSK9 (proprotein convertase subtilisin kexin type 9) (human, UniProt Q8NBP7 31-692)
T1 construct: immobilized directly (ProteOn), biotinylated (Octet) or in solution, according to the assay; also called hPCSK9; PCSK9-AF647 (labelled form)
testName: PCSK9:EGFA FRET, competitor EGFA peptide
measurementType: EC50 (nM)
Quick reminder: number only, in nM, skip the unit.

// 2382C05 (designed binder) MGVSDVPRDLEVVAATPTSLLISWDAPADGAYGYYRITYGETGGNSPVQEFTVPVSKGTATISGLKPGVDYTITVYAVEYSFPGAGYYHRPISINYRTEIDKPSQHHHHHH : EC50 value = 4

The value of EC50 measured for the binder 2382H03 (designed binder) MGVSDVPRDLEVVAATPTSLLISWDAPAEGAYGYYRITYGETGGNSPVQEFTVPVSKGTATISGLKPGVDYTITVYAVEYPYPFAGYYHRPISINYRTEIDKPSQHHHHHH turned out to be 3.4

EC50 in this record for 2382B08 (designed binder) MGVSDVPRDLEVVAATPTSLLISWDAPADAYGYYRITYGETGGNSPVQEFTVPSSKGTATISGLKPGVDYTITVYAVEFAFPGAGYYHRPISINYRTEIDKPSQHHHHHH : 2.9

Lab note: measured EC50 of 2382D08 (designed binder) MGVSDVPRDLEVVAATPTSLLISWDAPADGYGYYRITYGETGGNSPVQEFTVPVSKGTATISGLKPGVDYTITVYAVEFPFPGSGYYHRPISINYRTEIDKPSQHHHHHH was 3.1

The values you see were collected from patent US20120094909A1.
